- protocol.text: CCTE_Shafer_MEA_acute_cross_correlation_HWHM: CCTE's Neural Acute Assay for Cross Correlation at Half Width at Half Maximum, Shafer Lab (AID 2284026);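 further: percent change per well from pre-dose baseline in spike cross-correlogram half width; hits are a decrease in cross-correlogram half width relative to DMSO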
The source made the active and inactive calls. How the source made its calls: active means hit-call score of the fitted dose curve at least 0.9, where 1 is the maximum; inactive means score below 0.9.
recorded.endpoint: AC50

Reference set (7 entries):
- input.smiles: "O=P(OCCCl)(OCCCl)OCCCl"
  AC50: "inactive"
- input.smiles: "Cc1cc(N=Nc2ccccc2C)ccc1N"
  AC50: "30.1 µM (active)"
- input.smiles: "[Cl-].[Cl-].[Hg+2]"
  AC50: "29.3 µM (active)"
- input.smiles: "CCN(CC)CCO"
  AC50: "inactive"
- input.smiles: "ClCCOCCCl"
  AC50: "inactive"
- input.smiles: "CCCCOC(=O)c1ccccc1C(=O)OCc1ccccc1"
  AC50: "6.42 µM (active)"
- input.smiles: "CCN(CC)N=O"
  AC50: "inactive"

Given the compound CCCCCOC(=O)c1ccccc1C(=O)OCCCCC , write its reported AC50.
2.82 µM (active)

###

- Read-out: urokinase plasminogen activator (uPA), PLAU (gene 5328)
- protocol.text: BSK_KF3CT_uPA: BioMAP Diversity Plus: KF3CT Assay for urokinase plasminogen activator (uPA) Biomarker Activity (AID 2283075)
- measurement.parameters: primary human keratinocytes with fibroblasts; actives raise or lower the signal
Active and inactive are the calls of the source. Rule for the calls: active = hit-call score of the fitted dose curve at least 0.9, where 1 is the maximum; inactive = score below 0.9.
recorded.endpoint: AC50

Reference set (5 entries):
- compound: "C[N+](C)(C)CC1CO1 (stereo not given)"
  AC50: "inactive"
- compound: "OCCCl"
  AC50: "inactive"
- compound: "Nc1ccc(N=Nc2ccccc2)cc1"
  AC50: "inactive"
- compound: "CCCCCCCCn1sccc1=O"
  AC50: "11.2 µM (active)"
- compound: "COC(=O)Nc1nc2ccccc2[nH]1"
  AC50: "inactive"

Given the compound CC(C)(O)c1cnn2c(-c3ccc(F)c(-c4c(F)cccc4C#N)c3)cnc2n1 , write its reported AC50.
31.9 µM (active)

Given the compound O=Cc1ccco1 , write its reported AC50.
inactive

Given the compound OCCCBr , write its reported AC50.
inactive

Given the compound Oc1ccc2ccc3cccc4ccc1c2c34 , write its reported AC50.
inactive

Given the compound O=C(O)C1C2CCC(O2)C1C(=O)O (stereo not given) , write its reported AC50.
inactive

Given the compound CCCCCCCCOC(=O)c1ccc(C(=O)OCCCCCCCC)c(C(=O)OCCCCCCCC)c1 , write its reported AC50.
inactive

Given the compound CCCCOC(=O)c1ccccc1C(=O)OCc1ccccc1 , write its reported AC50.
inactive

Given the compound CCC12COCN1COC2 , write its reported AC50.
inactive

Given the compound Cc1cc(N=Nc2ccccc2C)ccc1N , write its reported AC50.
39.2 µM (active)

Given the compound Brc1ccc(Oc2ccccc2)cc1 , write its reported AC50.
inactive

###

- Read-out: TIMP metallopeptidase inhibitor 1 (TIMP1), TIMP1 (gene 7076)
- protocol.text: BSK_hDFCGF_TIMP1: BioMAP Diversity Plus: hDFCGF Assay for TIMP metallopeptidase inhibitor 1 (TIMP1) Biomarker Activity (AID 2283062)
- measurement.parameters: primary human foreskin fibroblasts; actives raise or lower the signal
- Description: BSK_hDFCGF is a cell-based, multiplexed-readout assay that uses foreskin fibroblast, a human skin primary cell, with measurements taken at 24 hours after chemical dosing in a 96-well plate.BSK_hDFCGF_TIMP1 is an assay component measured in the BSK_hDFCGF assay. It measures TIMP-1 antibody related to regulation of gene expression using ELISA technology.Data from the assay component BSK_hDFCGF_TIMP1 was analyzed into 1 assay endpoint. […]
The source made the active and inactive calls. Rule for the calls: active = hit-call score of the fitted dose curve at least 0.9, where 1 is the maximum; inactive = score below 0.9.
Tick one outcome: active, inactive

Solved cases (5 shown):
- molecule: "O=C(Nc1ccccc1)c1ccccc1I"
  discrete.label: "inactive"
- molecule: "Clc1ccc(C(c2ccc(Cl)cc2)C(Cl)Cl)cc1"
  discrete.label: "active"
- molecule: "CCCCCCCCn1sccc1=O"
  discrete.label: "active"
- molecule: "CC(C)(C)C(O)(CCc1ccc(Cl)cc1)Cn1cncn1 (stereo not given)"
  discrete.label: "inactive"
- molecule: "O=[N+]([O-])c1ccc(Oc2ccc(Cl)cc2Cl)cc1"
  discrete.label: "inactive"

What did the test return for CCN(CC)CCO ?
inactive

What did the test return for O=C(Oc1ccc(Br)cc1)N1CCN2CCC1CC2 ?
inactive

What did the test return for CC(C)(C)OOC(=O)c1ccccc1 ?
active

What did the test return for c1ccc2c(c1)-c1cccc3cccc-2c13 ?
inactive

What did the test return for Cc1ccc(N)cc1 ?
inactive

What did the test return for CC(C)(O)c1cnn2c(-c3ccc(F)c(-c4c(F)cccc4C#N)c3)cnc2n1 ?
inactive

What did the test return for CCC(C)c1ccc(O)cc1 (stereo not given) ?
inactive

What did the test return for CS(=O)(=O)NC(=O)c1cc(Oc2ccc(C(F)(F)F)cc2Cl)ccc1[N+](=O)[O-] ?
inactive

What did the test return for CCN(CC)N=O ?
inactive

What did the test return for COC(=O)c1ccccc1N ?
inactive

What did the test return for [O-][Cl+]O ?
inactive

What did the test return for Nc1ccc(N=Nc2ccccc2)cc1 ?
inactive

What did the test return for Cc1ccc(N=C=O)cc1N=C=O ?
inactive

What did the test return for CCOC(=O)[C@]1(c2ccccc2)Oc2ccccc2[C@@H]1N ?
active

What did the test return for CC(C)(OOC(C)(C)c1ccccc1)c1ccccc1 ?
inactive

###

- protocol.text: CCTE_Deisenroth_AIME_384WELL_CTox_Inactive: Cytotoxicity Assessment (CTOX) in CCTE's 384-well Estrogen Receptor Transactivation Assay without AIME metabolic competence (metabolism negative), Deisenroth Lab (AID 2284039);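 further: cell viability via live-cell protease substrate cleaved to fluorescent probe; cells exposed 24 h to medium preincubated 2 h with alginate-water beads without S9; loss of fluorescence signal means loss of viability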
Results filed as inconclusive are left out. Activity calls are given as the source filed them. The calls were made as follows: active = hit-call score of the fitted dose curve at least 0.9, where 1 is the maximum; inconclusive = response in the unintended direction; inactive = score below 0.9.
Tick one outcome: active, inactive

Solved cases (5 shown):
- compound: "Oc1ccc2ccc3cccc4ccc1c2c34"
  discrete.label: "inactive"
- compound: "CN(C)C(=O)Nc1ccc(Cl)cc1"
  discrete.label: "inactive"
- compound: "CN(C)[C@@H]1C(=O)C(C(N)=O)=C(O)[C@@]2(O)C(=O)C3=C(O)c4c(O)cccc4[C@@](C)(O)[C@H]3C[C@@H]12"
  discrete.label: "active"
- compound: "CCOC(=O)[C@]1(c2ccccc2)Oc2ccccc2[C@@H]1N"
  discrete.label: "inactive"
- compound: "OCCOCCO"
  discrete.label: "inactive"

What did the test return for [O-][Cl+]O ?
inactive

What did the test return for O=[N+]([O-])c1ccc(Oc2ccc(Cl)cc2Cl)cc1 ?
inactive

What did the test return for CCOc1cccc(C2(N3CCN(c4ccccc4)CC3)CCC(C)CC2)c1 (stereo not drawn) ?
inactive

###

- protocol.text: ATG_PXRE_CIS: Attagene CIS-FACTORIAL HepG2 Assay for human Pregnane X Receptor Element (PXRE) (AID 2282957)
- measurement.parameters: HepG2 Attagene CIS-FACTORIAL PXRE reporter, mRNA; actives raise or lower the signal
Active and inactive are the calls of the source. How the source made its calls: active means hit-call score of the fitted dose curve at least 0.9, where 1 is the maximum; inactive means score below 0.9.
recorded.endpoint: AC50

Reference set (5 entries):
- molecule: "Cc1cccc(N)c1N"
  AC50: "inactive"
- molecule: "[O-][Cl+]O"
  AC50: "inactive"
- molecule: "O=[N+]([O-])c1ccc(Oc2ccc(Cl)cc2Cl)cc1"
  AC50: "25.8 µM (active)"
- molecule: "CCC[CH2][Sn]([Cl])([CH2]CCC)[CH2]CCC"
  AC50: "inactive"
- molecule: "O=C(Oc1ccc(Br)cc1)N1CCN2CCC1CC2"
  AC50: "26 µM (active)"

Let us examine a further case.
Given the molecule CCCCC(CC)COC(=O)c1ccc(C(=O)OCC(CC)CCCC)c(C(=O)OCC(CC)CCCC)c1 (stereo unspecified) , write its reported AC50.
inactive

###

- protocol.text: ATG_Sox_CIS: Attagene CIS-FACTORIAL HepG2 Assay for human SRY-box transcription factor (SOX) (AID 2282960)
- measurement.parameters: HepG2 Attagene cis-factorial SOX reporter, mRNA; actives raise or lower the signal
Calls of active or inactive are those of the source. How the source made its calls: active means hit-call score of the fitted dose curve at least 0.9, where 1 is the maximum; inactive means score below 0.9.
Tick one outcome: TRUE (active), FALSE (inactive)

Solved cases (7 shown):
- compound: "Clc1ccc(C(c2ccc(Cl)cc2)C(Cl)Cl)cc1"
  discrete.label: "FALSE"
- compound: "O=Cc1ccco1"
  discrete.label: "FALSE"
- compound: "Cn1cc(-c2ccccc2)c(=O)c(-c2cccc(C(F)(F)F)c2)c1"
  discrete.label: "FALSE"
- compound: "C[N+](C)(C)CC1CO1 (stereo not drawn)"
  discrete.label: "FALSE"
- compound: "COc1cc(C=O)cc2c1[C@H](COC(N)=O)[C@]1(OC(C)=O)ON2C[C@H]2[C@@H]1N2C(C)=O"
  discrete.label: "FALSE"
- compound: "CC(C)COC(=O)c1ccccc1C(=O)OCC(C)C"
  discrete.label: "FALSE"
- compound: "CCCCCCCCn1sccc1=O"
  discrete.label: "TRUE"

What did the test return for OCCOCCO ?
FALSE

###

- Read-out: Insulin-like growth factor-binding protein 1 (IGFBP1), IGFBP1 (gene 3484)
- protocol.text: LTEA_HepaRG_IGFBP1: Life Technologies and Expression Analysis (LTEA) Assay for Insulin-like growth factor-binding protein 1 (IGFBP1) using HepaRG (AID 2283508)
- measurement.parameters: mRNA level, 48 h; actives raise or lower the signal
- Description: LTEA_HepaRG is a cell based, multiplexed-readout assay that uses HepaRG, a human liver cell line, with measurements taken at 48 hours after chemical dosing on a 96-well plate.LTEA_HepaRG_IGFBP1 is one of 102 assay component(s) measured in the LTEA HepaRG cell culture assay. It is a marker of Cell proliferation, survival, death.Data from the assay component LTEA_HepaRG_IGFBP1 was analyzed into 1 endpoint. […]
The source made the active and inactive calls. Rule for the calls: active = hit-call score of the fitted dose curve at least 0.9, where 1 is the maximum; inactive = score below 0.9.
Tick one outcome: true = active, false = inactive

Solved cases (5 shown):
- compound: "ClCCOCCCl"
  discrete.label: "false"
- compound: "Nc1ccc(Cl)cc1N"
  discrete.label: "true"
- compound: "CN(C)[C@@H]1C(=O)C(C(N)=O)=C(O)[C@@]2(O)C(=O)C3=C(O)c4c(O)cccc4[C@@](C)(O)[C@H]3C[C@@H]12"
  discrete.label: "false"
- compound: "[Cl-].[Cl-].[Hg+2]"
  discrete.label: "false"
- compound: "CN(C)c1ccccc1"
  discrete.label: "false"

What did the test return for CCNS(=O)(=O)C(F)(F)C(F)(F)C(F)(F)C(F)(F)C(F)(F)C(F)(F)C(F)(F)C(F)(F)F ?
false

What did the test return for Oc1ccccc1Cl ?
false
